Measured GI50, listed per entry.
# test name: Growth inhibition of human breast cancer cell by NCI-CLS assay
# Type: functional
# experimental context: Cancer cell lines
Counter-ions that a name gives are not always drawn.
The reply must contain the numeric value and, after it, the unit.

Here are 3 compounds together with their reported answers.
CC(C)(C)c1cc(/C=C2/C(=O)Nc3cccc(Cl)c32)c(O)c(/C=C2/C(=O)Nc3cccc(Cl)c32)c1 : 2400 nM
CC[C@]1(O)C[C@H]2CN(CCc3c([nH]c4ccccc34)[C@@](C(=O)OC)(c3cc4c(cc3OC)N(C=O)[C@H]3[C@@](O)(C(=O)OC)[C@H](OC(C)=O)[C@]5(CC)C=CCN6CC[C@]43[C@@H]65)C2)C1 [VINCRISTINE SULFATE] : 300 nM
COc1cc2c(c(OC)c1OC)/C(=C\c1cccc(/C=C3/C(=O)Nc4cc(OC)c(OC)c(OC)c43)n1)C(=O)N2 : 200 nM

# input Recall and state the measured GI50 for O=C1Nc2c(ccc3ccccc23)/C1=C\c1cccc(/C=C2/C(=O)Nc3c2ccc2ccccc32)n1 .
# output 17800 nM

----------
# test name: Growth inhibition of human leukemia cell by NCI-CLS assay
# Type: functional
Structures can show the parent of a compound that is named as a salt.
Mark TRUE for reported TGI of 10 µM or greater; mark FALSE for anything smaller.

Worked examples follow.
COc1cc2c(c(OC)c1OC)/C(=C\c1cccc(/C=C3/C(=O)Nc4cc(OC)c(OC)c(OC)c43)n1)C(=O)N2 : FALSE
CC[C@]1(O)C[C@H]2CN(CCc3c([nH]c4ccccc34)[C@@](C(=O)OC)(c3cc4c(cc3OC)N(C=O)[C@H]3[C@@](O)(C(=O)OC)[C@H](OC(C)=O)[C@]5(CC)C=CCN6CC[C@]43[C@@H]65)C2)C1 [VINCRISTINE SULFATE] : TRUE
COc1ccc2c(c1)/C(=C\c1ccc3ccc4ccc(/C=C5/C(=O)Nc6ccc(OC)cc65)nc4c3n1)C(=O)N2 : TRUE

# input Is TGI at least 10 µM? Consider O=C1Nc2cc(OC(F)(F)F)ccc2/C1=C\c1cccc(/C=C2/C(=O)Nc3cc(OC(F)(F)F)ccc32)n1
# output FALSE

# input Has O=C1Nc2cccc(Cl)c2/C1=C\c1ccc2ccc3ccc(/C=C4/C(=O)Nc5cccc(Cl)c54)nc3c2n1 a recorded TGI greater than or equal to 10 µM?
# output TRUE

# input Decide: TGI of COc1ccc(OC)c2c1NC(=O)/C2=C/c1cccc(/C=C2/C(=O)Nc3c(OC)ccc(OC)c32)n1 >= 10 µM?
# output FALSE

# input Is it the case that O=Cc1cccc(/C=C2/C(=O)Nc3c2ccc2ccccc32)n1 has TGI reaching or exceeding 10 µM?
# output FALSE

# input Please check the record Cc1[nH]c(C)c(/C=C2/C(=O)Nc3ccc(F)cc32)c1/C=C1/C(=O)Nc2ccc(F)cc21 and state if its TGI is at or above 10 µM.
# output FALSE

# input Determine whether measured TGI meets or exceeds 10 µM for COc1ccc2c(c1)/C(=C\c1cc(C(C)(C)C)cc(/C=C3/C(=O)Nc4ccc(OC)cc43)c1O)C(=O)N2
# output TRUE

# input Could you verify whether the entry CC(C)(C)c1cc(/C=C2/C(=O)Nc3cccc(Cl)c32)c(O)c(/C=C2/C(=O)Nc3cccc(Cl)c32)c1 shows TGI of no less than 10 µM?
# output TRUE

# input Form field: TGI at least 10 µM? Entry: O=C1Nc2cccc(I)c2/C1=C\c1cccc(/C=C2/C(=O)Nc3cccc(I)c32)n1
# output TRUE

# input Reported TGI reaches at least 10 µM for COc1ccc2c(c1)/C(=C\c1cccc(/C=C3/C(=O)Nc4ccc(OC)cc43)c1)C(=O)N2 ?
# output TRUE

# input Form field: TGI at least 10 µM? Entry: COc1ccc2c(c1)/C(=C\c1cc(OC)c(O)c(-c3cc(/C=C4/C(=O)Nc5ccc(OC)cc54)cc(OC)c3O)c1)C(=O)N2
# output TRUE

----------
# test name: Growth inhibition of human colon cancer cell by NCI-CLS assay
# Type: functional
# experimental context: Cancer cell lines
Counter-ions that a name gives are not always drawn.
reported endpoint: log10 of TGI (log10 of the value in µM)
Answers are given as log10 of TGI in µM.

Example results:
CC(C)(C)c1cc(/C=C2/C(=O)Nc3cccc(Cl)c32)c(O)c(/C=C2/C(=O)Nc3cccc(Cl)c32)c1 : 0.79
COc1ccc2c(c1)/C(=C\c1cccc(/C=C3/C(=O)Nc4ccc(OC)cc43)c1)C(=O)N2 : 0.87
O=C1Nc2cccc(Cl)c2/C1=C\c1cccc(/C=C2/C(=O)Nc3cccc(Cl)c32)c1 : 1.17
O=Cc1cccc(/C=C2/C(=O)Nc3c2ccc2ccccc32)n1 : 1.65
COc1ccc2c(c1)/C(=C\c1cc(OC)c(O)c(-c3cc(/C=C4/C(=O)Nc5ccc(OC)cc54)cc(OC)c3O)c1)C(=O)N2 : 1.88
Cc1[nH]c(C)c(/C=C2/C(=O)Nc3ccc(F)cc32)c1/C=C1/C(=O)Nc2ccc(F)cc21 : 1.23
COc1cc2c(c(OC)c1OC)/C(=C\c1cccc(/C=C3/C(=O)Nc4cc(OC)c(OC)c(OC)c43)n1)C(=O)N2 : -0.30
O=C1Nc2cccc(Cl)c2/C1=C\c1ccc2ccc3ccc(/C=C4/C(=O)Nc5cccc(Cl)c54)nc3c2n1 : 1.49

# input Give log10 of TGI for COc1ccc2c(c1)/C(=C\c1ccccc1/C=C1/C(=O)Nc3ccc(OC)cc31)C(=O)N2
# output 1.94

# input Given COc1ccc(OC)c2c1NC(=O)/C2=C/c1cccc(/C=C2/C(=O)Nc3c(OC)ccc(OC)c32)n1 , respond with its log10 of TGI.
# output 0.28

# input Please list log10 of TGI recorded for the molecule COc1ccc2c(c1)/C(=C\c1cc(C(C)(C)C)cc(/C=C3/C(=O)Nc4ccc(OC)cc43)c1O)C(=O)N2
# output 1.30

# input Name the recorded log10 of TGI of the molecule listed here: O=C1Nc2cc(OC(F)(F)F)ccc2/C1=C\c1cccc(/C=C2/C(=O)Nc3cc(OC(F)(F)F)ccc32)n1
# output -0.30

# input Answer with reported log10 of TGI of CC[C@]1(O)C[C@H]2CN(CCc3c([nH]c4ccccc34)[C@@](C(=O)OC)(c3cc4c(cc3OC)N(C=O)[C@H]3[C@@](O)(C(=O)OC)[C@H](OC(C)=O)[C@]5(CC)C=CCN6CC[C@]43[C@@H]65)C2)C1 [VINCRISTINE SULFATE]
# output 0.60

# input Let me know recorded log10 of TGI for COc1ccc2c(c1)/C(=C\c1ccc3ccc4ccc(/C=C5/C(=O)Nc6ccc(OC)cc65)nc4c3n1)C(=O)N2 , thanks.
# output 1.21

# input Indicate the recorded log10 of TGI value for this molecule: O=C1Nc2cccc(F)c2C1=Cc1cccc(C=C2C(=O)Nc3cccc(F)c32)n1
# output 0.52

# input Could you please provide reported log10 of TGI for O=C1Nc2c(ccc3ccccc23)/C1=C\c1cccc(/C=C2/C(=O)Nc3c2ccc2ccccc32)n1 ? Thanks!
# output 1.65

# input Give recorded log10 of TGI. O=C1Nc2cccc(I)c2/C1=C\c1cccc(/C=C2/C(=O)Nc3cccc(I)c32)n1
# output 0.28

----------
Reported CC50 by item:
# test name: Growth inhibition of human CNS cancer cell by NCI-CLS assay
# Type: functional
# experimental context: Cancer cell lines, read-out: LC50 (the source's name)
Give just the numeric value; µM need not be written.

A selection of reference data follows.
COc1cc2c(c(OC)c1OC)/C(=C\c1cccc(/C=C3/C(=O)Nc4cc(OC)c(OC)c(OC)c43)n1)C(=O)N2 : 3.2
O=C1Nc2c(ccc3ccccc23)/C1=C\c1cccc(/C=C2/C(=O)Nc3c2ccc2ccccc32)n1 : 85.1
O=C1Nc2cccc(I)c2/C1=C\c1cccc(/C=C2/C(=O)Nc3cccc(I)c32)n1 : 13.8
COc1ccc(OC)c2c1NC(=O)/C2=C/c1cccc(/C=C2/C(=O)Nc3c(OC)ccc(OC)c32)n1 : 21.9
O=C1Nc2cccc(Cl)c2/C1=C\c1cccc(/C=C2/C(=O)Nc3cccc(Cl)c32)c1 : 38.9

# input Recall and state the measured CC50 for O=C1Nc2cc(OC(F)(F)F)ccc2/C1=C\c1cccc(/C=C2/C(=O)Nc3cc(OC(F)(F)F)ccc32)n1 .
# output 2.6

# input Supply measured CC50 of COc1ccc2c(c1)/C(=C\c1cccc(/C=C3/C(=O)Nc4ccc(OC)cc43)c1)C(=O)N2 in your reply.
# output 29.5

# input Note down CC50 recorded for Cc1[nH]c(C)c(/C=C2/C(=O)Nc3ccc(F)cc32)c1/C=C1/C(=O)Nc2ccc(F)cc21
# output 46.8
